Tested on: Wolbachia pipientis
Test details: Anti-Wolbachia Cell-Based Screen
Assay type: functional
Parameters: scale not given: in the data most compounds retested in dose-response had high values
Condition info: 5 µM
Screen size: about 48,000 compounds; about 13,000 (27%) showed an effect of 50% or more. The list shows a part of the results.
Measured quantity: Percent Effect

{"Molecule": "Cc1ccccc1NC(=O)CNC(C)COc1ccccc1 (stereo not drawn)", "Percent Effect": "-5.07%"}

// Percent Effect lookup, key: O=C(Cn1ccc2c(Cl)cccc21)N[C@@H](C(=O)O)c1ccccc1
2.253%

Also CN(C)C(=O)N1CC2(CCNCC2)c2cc(Cl)ccc21.Cl ?
-23.53%

Also CC(C)(CO)Nc1cc(-c2ccccc2)ncn1 ?
83.59%

Also CC(C)(CO)Nc1cc(-c2cn[nH]c2)ncn1.Cl ?
116.8%

Also O=C1CN(C(=O)c2cc(Cl)ccc2F)c2ccncc2N1 ?
-25.93%

Also Cc1ccc(OCC(C)NS(C)(=O)=O)cc1C (stereo not drawn) ?
1.577%

Also O=C(c1ccc2c(c1)OCO2)N1CCC(Nc2cccnn2)CC1 ?
90.41%
